Test system: Kunming mice
TEST SUMMARY: Influence on hypnosis effect with pentobarbital sodium doses at the threshold (50 mg/kg i.p.)
Format: in vivo
TEST SETTINGS: 100 mg/kg intragastric single dose, pentobarbital sodium 50 mg/kg i.p. 60 min later, x ± s, n = 10
Assign yes (1) to entries whose duration of sleep meets or exceeds 60 min; assign no (0) to the rest.

Solved cases below.
MOLECULE: COc1ccc(C2CC(=O)c3c(O)c(OC)c(OC)c(OC)c3O2)cc1 (centres unmarked) [Example 42]
CATEGORY LABEL: yes (1)

MOLECULE: N#Cc1cc(-c2cc(=O)c3c(N)cc(F)cc3o2)ccc1O [Example 37]
CATEGORY LABEL: no (0)

MOLECULE: C=Cc1cc(C2CC(=O)c3cc(C(N)=O)c(C4CCSC4)c(Oc4ccccc4)c3O2)ccc1N (centres unmarked) [Example 57]
CATEGORY LABEL: no (0)

MOLECULE: N#CSc1ccc(-c2cc(=O)c3cc(N)c(F)c(C#N)c3o2)cc1O [Example 28]
CATEGORY LABEL: no (0)

MOLECULE: COc1cc(OC)c2c(=O)cc(-c3ccc(OC)c(O)c3)oc2c1 [Example 4, 3′-hydroxyl-5,7,4′-trimethoxyl-flavone]
CATEGORY LABEL: yes (1)

Next molecule, please.
I'd appreciate it if you could say whether COc1ccc(C2CC(=O)c3cc(OC)c(OC)c(OC)c3O2)cc1OC (centres unmarked) [Example 45, 6,7,8,3′,4′-penta methoxyl-flavanone] has duration of sleep at least equal to 60 min.
yes (1)

----------
System: Kunming mice
TEST SUMMARY: Influence on autonomic activity of normal mice (ZIL-2 mice autonomic activity meter, counts within 10 min)
Type: in vivo
TEST SETTINGS: intragastric, 50 mg/kg, 2 h after administration, x ± s, n = 10
Kindly supply the reported Times of activities in 2 h after drug administration/10 min values for the records listed here.

COMPOUND: COc1ccc(C2CC(=O)c3cc(OC)c(OC)c(OC)c3O2)cc1OC (stereo not drawn)
RECORDED MEASUREMENT: 123.3 ± 47.6 /10 min

COMPOUND: COc1ccc(C2CC(=O)c3c(OC)c(OC)c(OC)c(OC)c3O2)cc1OC (stereo not drawn)
RECORDED MEASUREMENT: 140.6 ± 40.8 /10 min

COMPOUND: COc1ccc(-c2cc(=O)c3c(O)c(OC)c(OC)c(OC)c3o2)cc1OC
RECORDED MEASUREMENT: 179.7 ± 46.0 /10 min

COMPOUND: COc1cc2c(c(OC)c1OC)OC(c1cc(OC)c(OC)c(OC)c1OC)CC2=O (stereo not drawn)
RECORDED MEASUREMENT: 251.3 ± 38.8 /10 min

COMPOUND: COc1cc(-c2cc(=O)c3c(OC)c(OC)c(OC)cc3o2)cc(OC)c1OC
RECORDED MEASUREMENT: 278.6 ± 47.5 /10 min

Provide reported Times of activities in 2 h after drug administration/10 min for each item, in the same order as listed.
1. C=Cc1cc(C(N)=O)cc2oc(-c3ccc(N)c(C4CCSC4)c3)cc(=O)c12 (stereo not drawn)
2. CC=Cc1cc(-c2cc(=O)c3c(CCCCC)cc(C(=O)O)cc3o2)cc(C(=O)O)c1C#N
3. COc1cc(OC)c2c(c1)OC(c1cc(OC)c(OC)c(OC)c1)CC2=O (stereo not drawn)
4. C#Cc1ccc(-c2cc(=O)c3cc(F)c(C(=O)O)c(O)c3o2)cc1CCCCCCCCCCCCCCCCCCCC
5. CC=Cc1cc(Cc2ccccc2)c2c(=O)cc(-c3cc(C#N)c([N+](=O)[O-])c(Cc4ccccc4)c3)oc2c1

257.1 ± 57.2 /10 min
267.1 ± 43.5 /10 min
254.1 ± 53.2 /10 min
247.1 ± 58.3 /10 min
190.2 ± 56.9 /10 min

For each of the compounds below, state Times of activities in 2 h after drug administration/10 min.
1. CCCCCc1cc(-c2cc(=O)c3c(CC)cc(CCCCCCl)cc3o2)cc(O)c1Cc1ccccc1
2. C=Cc1cc2c(=O)cc(-c3ccc(CC)c(N)c3)oc2c(C2CCSC2)c1C(N)=O (stereo not drawn)
3. C=Cc1cc(-c2cc(=O)c3c(C4CCSC4)cc(C(N)=O)cc3o2)cc(N)c1CC (stereo not drawn)
4. CCc1cccc2c1C(=O)CC(c1cc(F)cc(C(=O)O)c1)O2 (stereo not drawn)

1: 243.5 ± 48.3 /10 min; 2: 244.5 ± 48.2 /10 min; 3: 189.3 ± 57.3 /10 min; 4: 236.7 ± 60.8 /10 min

Briefly, Times of activities in 2 h after drug administration/10 min measured for COc1cc(C2Oc3c(OC)c(OC)c(OC)c(O)c3C(=O)C2OC)c(OC)c(OC)c1OC (stereo not drawn) : 243.2 ± 54.6 /10 min

----------
Tested on: Kunming mice
TEST SUMMARY: Influence on autonomic activity of normal mice (ZIL-2 mice autonomic activity meter, counts within 10 min)
Assay type: in vivo
TEST SETTINGS: intragastric, 50 mg/kg, 2 h after administration, x ± s, n = 10
EXPERIMENTAL ENDPOINT: Times of activities in 2 h after drug administration/10 min

COMPOUND: O=c1cc(-c2cc(O)c(Oc3ccccc3)c(CCCCCCCCCCCCCCCCCCCCCl)c2)oc2cc(C#Cc3ccccc3)cc([N+](=O)[O-])c12
RECORDED MEASUREMENT: 250.4 ± 41.4 /10 min
//
COMPOUND: COc1ccc(C2CC(=O)c3cc(CCS(=O)(=O)O)c(C4CCNC4)c(N)c3O2)cc1SC#N (stereo not shown)
RECORDED MEASUREMENT: 135.6 ± 69.2 /10 min
//
COMPOUND: COc1ccc(-c2oc3c(OC)c(OC)c(OC)c(OC)c3c(=O)c2OC)cc1OC
RECORDED MEASUREMENT: 245.5 ± 28.1 /10 min

Now take the following compound into account.
The reported Times of activities in 2 h after drug administration/10 min value, Kunming mice, for COc1ccc(-c2cc(=O)c3c(O)cc(OC)c(OC)c3o2)c(OC)c1OC reads 194.3 ± 45.1 /10 min

----------
System: Kunming mice
TEST SUMMARY: Influence on autonomic activity of normal mice (ZIL-2 mice autonomic activity meter, counts within 10 min)
Type: in vivo
TEST SETTINGS: intragastric, 50 mg/kg, 1 h after administration, x ± s, n = 10
EXPERIMENTAL ENDPOINT: Times of activities in 1 h after drug administration/10 min

Worked examples follow.
COMPOUND: COc1ccc(-c2cc(=O)c3c(O)cc(OC)c(OC)c3o2)c(OC)c1OC
TEST SYSTEM: Kunming mice
RECORDED MEASUREMENT: 183.5 ± 45.9 /10 min
//
COMPOUND: COc1cc(OC)c2c(c1)OC(c1cc(OC)c(OC)c(OC)c1)CC2=O (stereo not shown)
TEST SYSTEM: Kunming mice
RECORDED MEASUREMENT: 264.4 ± 41.3 /10 min
//
COMPOUND: CCCc1cc(-c2cc(=O)c3c(I)cc(CCS(=O)(=O)O)cc3o2)cc(C(N)=O)c1C(=O)O
TEST SYSTEM: Kunming mice
RECORDED MEASUREMENT: 229.9 ± 40.6 /10 min

Attention now shifts to the item below.
Reported Times of activities in 1 h after drug administration/10 min of COc1ccc(C2CC(=O)c3c(OC)cc(OC)c(OC)c3O2)cc1OC (stereo not shown) : 143.4 ± 41.3 /10 min

----------
Tested on: Kunming mice
TEST SUMMARY: Influence on autonomic activity of normal mice (ZIL-2 mice autonomic activity meter, counts within 10 min)
Type: in vivo
TEST SETTINGS: intragastric, 25 mg/kg, 2 h after administration, x ± s, n = 10
Field: Times of activities in 2 h after drug administration/10 min. Provide a value for each of the molecules that follow.

Study these solved cases before continuing.
MOLECULE: CCCc1cc(-c2cc(=O)c3c(I)cc(CCS(=O)(=O)O)cc3o2)cc(C(N)=O)c1C(=O)O [Example 23]
RECORDED MEASUREMENT: 263.2 ± 45.2 /10 min
--
MOLECULE: COc1ccc(C2CC(=O)c3c(cc(OC)c(OC)c3OC)O2)cc1 (stereo not shown) [Example 65, 5,6,7,4′-tetra methoxyl-flavanone]
RECORDED MEASUREMENT: 279.4 ± 43.5 /10 min
--
MOLECULE: C=Cc1cc(C(N)=O)cc2oc(-c3ccc(N)c(C4CCSC4)c3)cc(=O)c12 (stereo not shown) [Example 38]
RECORDED MEASUREMENT: 296.2 ± 34.6 /10 min

Entry COc1cc(C2Oc3c(OC)c(OC)c(OC)c(O)c3C(=O)C2OC)c(OC)c(OC)c1OC (stereo not shown) [Example 68] , Kunming mice data, Times of activities in 2 h after drug administration/10 min value: 267.7 ± 40.4 /10 min
